- Assay system: Vasopressin V2 receptor (Homo sapiens, UniProt P30518); also: assay procedure not described here
- Sequence (P30518 whole entry): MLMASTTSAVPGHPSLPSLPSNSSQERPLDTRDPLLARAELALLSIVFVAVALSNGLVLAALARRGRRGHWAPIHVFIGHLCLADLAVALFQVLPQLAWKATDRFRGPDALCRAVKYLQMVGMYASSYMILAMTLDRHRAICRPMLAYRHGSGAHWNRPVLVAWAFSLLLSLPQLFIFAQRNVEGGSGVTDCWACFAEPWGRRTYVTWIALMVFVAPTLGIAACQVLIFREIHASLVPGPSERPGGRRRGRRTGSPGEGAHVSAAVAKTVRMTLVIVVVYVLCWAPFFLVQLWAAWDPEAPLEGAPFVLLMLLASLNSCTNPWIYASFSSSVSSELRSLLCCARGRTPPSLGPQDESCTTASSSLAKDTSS
Assay endpoint: AC50

Kindly note the recorded AC50 for C[N+]12CCC(CC1)C(OC(=O)C(O)(c1ccccc1)c1ccccc1)C2 (stereo not drawn) , which is > 30 µM

get_value(item= C=C1c2cccc(O)c2C(=O)C2=C(O)[C@]3(O)C(=O)C(C(N)=O)=C(O)[C@@H](N(C)C)[C@@H]3[C@@H](O)[C@H]12 [METHACYCLINE] , readout=AC50) returns > 30 µM

Please fill in: AC50 reported for Cc1ccc(C)c(OCCCC(C)(C)C(=O)O)c1 [GEMFIBROZIL] = > 30 µM

Reported AC50 of CC(C(=O)O)c1ccc2c(c1)CC(=O)c1ccccc1S2 (stereo not drawn) [ZALTOPROFEN] : > 30 µM

Lab book: AC50 of Oc1cc(O)c(Cl)cn1 noted as > 30 µM

Looking up Fc1ccc([C@@H]2CCNC[C@H]2COc2ccc3c(c2)OCO3)cc1 [PAROXETINE] , I found its AC50 recorded as > 30 µM

The recorded AC50 for CC(C(=O)O)c1ccc2oc(-c3ccc(Cl)cc3)nc2c1 (stereo not drawn) [BENOXAPROFEN] is > 30 µM

Form: compound = COc1ccc(C2C(=O)c3ccccc3C2=O)cc1 [ANISINDIONE] ; AC50 = > 10 µM

Just so you know, measured AC50 for C[N+](C)(C)CCOP(=O)([O-])OC[C@H](O)CO came out at > 30 µM

For this compound ( COc1ccc2cc(CCC(C)=O)ccc2c1 [NABUMETONE] ), measured AC50 is > 10 µM

# AC50 (compound: CN(CCOc1ccc(CC2SC(=O)NC2=O)cc1)c1ccccn1 (stereo not drawn) [ROSIGLITAZONE] ) is > 30 µM

Noted for Cc1cccc(C)c1NC(=O)CC12CCCN1CCC2 [PILSICAINIDE] : its AC50 reads > 30 µM

Per the records, this compound ( CC/C=C\C/C=C\C/C=C\C/C=C\C/C=C\CCCC(=O)OCC [ICOSAPENT ETHYL] ) has AC50 equal to > 10 µM

Please fill in: AC50 reported for Clc1ccc(CCC(Cn2ccnc2)Sc2c(Cl)cccc2Cl)cc1 (stereo not drawn) [BUTOCONAZOLE] = > 30 µM

CCN1CC(CCN2CCOCC2)C(c2ccccc2)(c2ccccc2)C1=O (stereo not drawn) [DOXAPRAM] has a reported AC50 of > 30 µM

Value of measured AC50 for the entry O=C(NCCO[N+](=O)[O-])c1cccnc1 [NICORANDIL] : > 30 µM

The reported AC50 of the compound O=C1Nc2ccc(Cl)cc2C(c2ccccc2Cl)=NC1O (stereo not drawn) [LORAZEPAM] was > 30 µM

compound OC[C@H]1O[C@@H](n2cnc3c2NC=NC[C@H]3O)C[C@@H]1O [PENTOSTATIN] , AC50 observed: > 30 µM

Recorded AC50 (compound CC(C)(Oc1ccc(CCNC(=O)c2ccc(Cl)cc2)cc1)C(=O)O [BEZAFIBRATE] ): > 10 µM

For O=C(O)COCCN1CCN(C(c2ccccc2)c2ccc(Cl)cc2)CC1 (stereo not drawn) [CETIRIZINE] the compound record lists AC50 as > 30 µM

Looking up CC(=O)c1ccc(S(=O)(=O)NC(=O)NC2CCCCC2)cc1 [ACETOHEXAMIDE] , I see its AC50 listed as > 10 µM

Consider C=CC[N+]1([C@H]2C[C@H]3[C@@H]4CC[C@H]5C[C@H](O)[C@@H](N6CCOCC6)C[C@]5(C)[C@H]4CC[C@]3(C)[C@H]2OC(C)=O)CCCC1 [ROCURONIUM] . Its measured AC50 is > 30 µM

Briefly, AC50 measured for Cc1nnc(SCC2=C(C(=O)O)N3C(=O)[C@@H](NC(=O)Cn4cnnn4)[C@H]3SC2)s1 [CEFAZOLIN] : > 30 µM
